Kindly state ED50 for each of the entries shown.
# Tested on: Factor VII (FVII)
# EXPERIMENTAL SETUP: siRNA dose reducing serum FVII protein by 50% at 24 h; PFV LN-siRNA 40/10/40/10

### Prompt Entry under review: CCCCC/C=C\C/C=C\CCCCCCCCN(CCCCCCCC/C=C\C/C=C\CCCCC)CC(O)CO (stereo not shown) . Reported ED50?
### Response 5 to 12 mg/kg

### Prompt Quick one: CCCCC/C=C\C/C=C\CCCCCCCCC1(CCCCCCCC/C=C\C/C=C\CCCCC)OCC(CCCCN(C)C)O1 (stereo not shown)
### Response > 3 mg/kg

### Prompt Here is the next compound: CCCCC/C=C\C/C=C\CCCCCCCCC1(CCCCCCCC/C=C\C/C=C\CCCCC)OCC(CCN(C)C)O1 (stereo not shown)
### Response ~0.1 mg/kg

### Prompt Try this compound too: CCCCC/C=C\C/C=C\CCCCCCCCC1(CCCCCCCC/C=C\C/C=C\CCCCC)OCC(CN(C)C)O1 (stereo not drawn) [DLin-K-DMA (+)]
### Response ~0.3 mg/kg

----------
# Test system: Factor VII (FVII)
# EXPERIMENTAL SETUP: Table 5; siRNA dose reducing serum FVII protein by 50% at 24 h; PFV LN-siRNA 40/10/40/10
Would you mind telling me the reported ED50 of each entry?

### Prompt Quick check: ED50 of CCCCCCCC/C=C\CCCCCCCCNC(=O)OCC(CN(C)C)OC(=O)NCCCCCCCC/C=C\CCCCCCCC (centres unmarked) ?
### Response >10 mg/kg

### Prompt Then CCCCCCCC/C=C\CCCCCCCCOCC(CN(C)C)OCCCCCCCC/C=C\CCCCCCCC (centres unmarked) [DODMA, reference compound] ?
### Response 2 to 5 mg/kg

### Prompt Same for CCCCCCCC/C=C\CCCCCCCC(=O)OCC(CN(C)C)OC(=O)CCCCCCC/C=C\CCCCCCCC (centres unmarked) [DODAP, 1,2-dioleoyl-3-dimethylammonium propane, reference compound]
### Response >25 mg/kg

### Prompt Repeat with CCCCCCCC/C=C\CCCCCCCC(=O)OCC(C[N+](C)(C)C)OC(=O)CCCCCCC/C=C\CCCCCCCC.[Cl-] (centres unmarked) [DOTAP.Cl, reference compound]
### Response >25 mg/kg

### Prompt // query: CCCC/C=C\CCCCCCCC(=O)OCC(CN(C)C)OC(=O)CCCCCCC/C=C\CCCC (centres unmarked)
### Response >10 mg/kg

### Prompt Try this compound next: CCCCC/C=C\C/C=C\CCCCCCCCN(CCCCCCCC/C=C\C/C=C\CCCCC)CC(O)CO (centres unmarked)
### Response 5 to 12 mg/kg

### Prompt Let us now turn to CCCCC/C=C\C/C=C\CCCCCCCCOCC(CN(C)C)OCCCCCCCC/C=C\C/C=C\CCCCC (centres unmarked) [DLinDMA, 1,2-Dilinoleyloxy-3-dimethylaminopropane, reference compound]
### Response ~1 mg/kg

### Prompt One more compound: CCCCC/C=C\C/C=C\CCCCCCCC(=O)OCC(C[N+](C)(C)C)OC(=O)CCCCCCC/C=C\C/C=C\CCCCC.[Cl-] (centres unmarked)
### Response >25 mg/kg

----------
Could you please report measured ED50 for the items listed next?
# Tested on: Factor VII (FVII)
# EXPERIMENTAL SETUP: Table 4; siRNA dose reducing serum FVII protein by 50% at 24 h; PFV LN-siRNA 40/10/40/10

### Prompt Which ED50 is reported for this compound? CCCCC/C=C\C/C=C\CCCCCCCCOCC(CN(C)C)OCCCCCCCC/C=C\C/C=C\CCCCC (stereo not shown) [DLinDMA, 1,2-Dilinoleyloxy-3-dimethylaminopropane, reference compound]
### Response ~1 mg/kg

### Prompt Another compound to look at: CCCCC/C=C\C/C=C\CCCCCCCCSCC(CN(C)C)SCCCCCCCC/C=C\C/C=C\CCCCC (stereo not shown)
### Response 12 to 25 mg/kg

### Prompt Similarly, CCCCC/C=C\C/C=C\CCCCCCCCC1(CCCCCCCC/C=C\C/C=C\CCCCC)OCC(CN(C)C)O1 (racemic) ?
### Response ~0.4 mg/kg

### Prompt Entry CCCCC/C=C\C/C=C\CCCCCCCCOC(COC(=O)CCCCCCC/C=C\C/C=C\CCCCC)CN(C)C (stereo not shown) please
### Response 5 to 12 mg/kg

----------
# Tested on: Factor VII (FVII)
# EXPERIMENTAL SETUP: siRNA dose reducing serum FVII protein by 50% at 24 h; PFV LN-siRNA 40/10/40/10
MEASURE: ED50

### Prompt Value lookup for ED50; key = CCCCC/C=C\C/C=C\CCCCCCCCC(CCCCCCCC/C=C\C/C=C\CCCCC)OC(=O)CCN(C)C [DLin-M-DMA]
### Response ~0.7 mg/kg

### Prompt Then this compound: CCCCCCCCCCCCCCCCCCC1(CCCCCCCCCCCCCCCCCC)OCC(CN(C)C)O1 (stereo not drawn) [DS-K-DMA]
### Response ~8.0 mg/kg

### Prompt Proceed to CCCCC/C=C\C/C=C\CCCCCCCCC1(CCCCCCCC/C=C\C/C=C\CCCCC)OCC(CCCN(C)C)O1 (stereo not drawn) [DLin-K-C3-DMA]
### Response ~0.6 mg/kg

----------
# Test system: Factor VII (FVII)
# EXPERIMENTAL SETUP: siRNA dose reducing serum FVII protein by 50% at 24 h; PFV LN-siRNA 40/10/40/10
MEASURE: ED50

### Prompt Provide the documented ED50 with Factor VII (FVII) as the system for CCCCC/C=C\C/C=C\CCCCCCCCOCC(CN1CCOCC1)OCCCCCCCC/C=C\C/C=C\CCCCC (stereo not shown)
### Response 12 to 25 mg/kg

### Prompt What would you report for CCCCC/C=C\C/C=C\CCCCCCCCC1(CCCCCCCC/C=C\C/C=C\CCCCC)OCC(CN(C)C)O1 (racemic) [DLin-K-DMA] ?
### Response ~0.4 mg/kg

### Prompt Same lookup for CCCCC/C=C\C/C=C\CCCCCCCCC1(CCCCCCCC/C=C\C/C=C\CCCCC)OCC(CN2CCN(C)CC2)O1 (stereo not shown) , please.
### Response ~1.5 mg/kg

### Prompt How about this molecule: CCCCCCCC/C=C\CCCCCCCCC1(CCCCCCCC/C=C\CCCCCCCC)OCC(CN(C)C)O1 (stereo not shown)
### Response ~1.0 mg/kg

----------
# TEST DETAILS: Bilayer-to-hexagonal HII transition temperature (TBH) in equimolar mixtures with DSPS
# Assay type: physicochemical
# EXPERIMENTAL SETUP: equimolar with DSPS, pH 4.8; 31P NMR and DSC
MEASURE: HII transition temperature (°C)
Report the value in °C with no unit label.

### Prompt I have this compound here, CCCCC/C=C\C/C=C\CCCCCCCCC1(CCCCCCCC/C=C\C/C=C\CCCCC)OCC(CCN(C)C)O1 (centres unmarked) , and I need its recorded HII transition temperature.
### Response 20

### Prompt Now this one: CCCCC/C=C\C/C=C\CCCCCCCCOCC(CN(C)C)OCCCCCCCC/C=C\C/C=C\CCCCC (centres unmarked) [DLinDMA, 1,2-Dilinoleyloxy-3-dimethylaminopropane, reference compound]
### Response 27

### Prompt Note, next up: CCCCC/C=C\C/C=C\CCCCCCCCC1(CCCCCCCC/C=C\C/C=C\CCCCC)OCC(CCCCN(C)C)O1 (centres unmarked)
### Response 18

### Prompt One more compound: CCCCC/C=C\C/C=C\CCCCCCCCC1(CCCCCCCC/C=C\C/C=C\CCCCC)OCC(CCCN(C)C)O1 (centres unmarked)
### Response 18

### Prompt Try this compound next: CCCCC/C=C\C/C=C\CCCCCCCCC1(CCCCCCCC/C=C\C/C=C\CCCCC)OCC(CN(C)C)O1 (racemic)
### Response 19
